System under test: Cannabinoid receptor 2 (Homo sapiens)
Sequence (P34972 whole entry): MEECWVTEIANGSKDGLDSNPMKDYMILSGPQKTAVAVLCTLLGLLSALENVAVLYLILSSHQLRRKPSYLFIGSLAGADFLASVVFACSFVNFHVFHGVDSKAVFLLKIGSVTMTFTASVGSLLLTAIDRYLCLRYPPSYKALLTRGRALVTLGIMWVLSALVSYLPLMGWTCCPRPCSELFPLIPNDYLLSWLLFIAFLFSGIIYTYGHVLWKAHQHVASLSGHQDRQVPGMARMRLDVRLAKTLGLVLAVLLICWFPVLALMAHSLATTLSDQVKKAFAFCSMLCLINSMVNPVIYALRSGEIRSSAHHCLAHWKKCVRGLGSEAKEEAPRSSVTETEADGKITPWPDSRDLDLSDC
Procedure details: Displacement of [3H]CP-55,940 from human recombinant CB2 receptor expressed in CHO cell membranes after 60 mins by scintillation counting analysis
Measurement label: pKi
Hey, just a heads up that pKi is the negative log base 10 of the concentration in molar.

Exam item: Answer with the recorded pKi for the molecule listed here: `Cc1nn(C)c2c1c(=O)c(C(=O)NC1CCCCC1)cn2Cc1ccccc1`
Marked response: 6.02

Exam item: Respond only with pKi recorded for `CCCCCn1cc(C(=O)N[C@H]2CC[C@@H](C)CC2)c(=O)c2c(C)nn(C)c21`
Marked response: 7.97

Exam item: Quick one: give measured pKi for `CCCCCn1cc(C(=O)NC2CCCCC2)c(=O)c2c(C)nn(C)c21`
Marked response: 7.07

Exam item: Return pKi for the following molecule: `CCCCCn1cc(C(=O)NC23CC4CC(CC(C4)C2)C3)c(=O)c2c(C)nn(C)c21`
Marked response: 8.02

Exam item: State, in one line, measured pKi of `CCCCCn1cc(C(=O)NC23CC4CC(CC(C4)C2)C3)c(=O)c2c(C)c(C)sc21`
Marked response: 8.49

Exam item: Return pKi for the following molecule: `CCCCCCn1cc(C(=O)NC2CCCCC2)c(=O)c2c(C)nn(C)c21`
Marked response: 6.49

Exam item: Kindly indicate its recorded pKi. Item: `CCCCCn1cc(C(=O)NC2CCCCCC2)c(=O)c2c(C)csc21`
Marked response: 8.16

Exam item: Kindly indicate its recorded pKi. Item: `CCCCCn1cc(C(=O)NC23CC4CC(CC(C4)C2)C3)c(=O)c2cnn(C)c21`
Marked response: 7.94

---

System under test: Cannabinoid receptor 1 (Homo sapiens)
Procedure details: Displacement of [3H]CP-55,940 from human recombinant CB1 receptor expressed in CHO cell membranes after 90 mins by scintillation counting analysis
Rule: measured Ki below 700 nM gets True; anything equal to or greater than 700 nM gets False.

Exam item: Decide: Ki of `CCCCCn1cc(C(=O)NC23CC4CC(CC(C4)C2)C3)c(=O)c2c(C)c(C)sc21` strictly below 700 nM?
Marked response: True

Exam item: Report whether reported Ki is lower than 700 nM (strictly) for `CCCCCn1cc(C(=O)N[C@H]2CC[C@@H](C)CC2)c(=O)c2c(C)nn(C)c21`
Marked response: False

Exam item: Quick check: does `CCCn1cc(C(=O)NC2CCCCC2)c(=O)c2c(C)nn(C)c21` have Ki under 700 nM?
Marked response: False

Exam item: Take the compound `CCCCCn1cc(C(=O)NC2CCCCC2)c(=O)c2c(C)nn(C)c21` and say whether its Ki is less than 700 nM.
Marked response: True

Exam item: Report whether reported Ki is lower than 700 nM (strictly) for `CCCCCn1cc(C(=O)N[C@H]2CC[C@H](C)CC2)c(=O)c2c(C)nn(C)c21`
Marked response: False

---

System under test: Cannabinoid receptor 1 (Homo sapiens, UniProt P21554)
Sequence (P21554 whole entry): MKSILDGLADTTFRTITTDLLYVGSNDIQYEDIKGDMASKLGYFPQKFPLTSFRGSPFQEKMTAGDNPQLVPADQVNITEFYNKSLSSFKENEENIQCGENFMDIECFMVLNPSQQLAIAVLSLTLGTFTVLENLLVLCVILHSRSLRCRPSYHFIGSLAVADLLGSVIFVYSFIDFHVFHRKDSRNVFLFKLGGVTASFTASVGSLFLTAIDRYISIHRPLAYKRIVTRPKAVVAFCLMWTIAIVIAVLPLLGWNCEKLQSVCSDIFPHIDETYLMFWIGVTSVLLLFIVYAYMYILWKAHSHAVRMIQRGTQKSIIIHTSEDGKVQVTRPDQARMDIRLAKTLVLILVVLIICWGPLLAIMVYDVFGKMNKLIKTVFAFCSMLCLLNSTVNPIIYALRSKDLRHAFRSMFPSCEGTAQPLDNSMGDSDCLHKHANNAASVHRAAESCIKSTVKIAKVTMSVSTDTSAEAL
Procedure details: Displacement of [3H]CP-55,940 from human recombinant CB1 receptor expressed in CHO cell membranes at 1 to 10000 nM after 90 mins by scintillation counting analysis
Binning scheme for inhibition: low: < 20%; middle: ≥ 20% and < 30%; high: ≥ 30%

Exam item: Which class holds `CCCCCn1cc(C(=O)NCc2ccccc2)c(=O)c2c(C)nn(C)c21` ?
Marked response: high

Exam item: Quick check: band for `CCCCCn1cc(C(=O)NC2CCCCCC2)c(=O)c2c(-c3ccccc3)nn(C)c21`
Marked response: low

Exam item: Assign a category based on measured inhibition for `C=CCn1cc(C(=O)NC2CCCCC2)c(=O)c2c(C)nn(C)c21` and give only the class name.
Marked response: high

Exam item: Would you mind sorting `CCCCCn1cc(C(=O)NC2CCCCCC2)c(=O)c2c(-c3ccc(Cl)cc3)nn(C)c21` into the appropriate category?
Marked response: low

Exam item: Which inhibition category applies to `Cc1nn(C)c2c1c(=O)c(C(=O)NC1CCCCC1)cn2CCCCC#N` here?
Marked response: middle

Exam item: Place this compound in its band: `CCCCCn1cc(C(=O)NC2CCCCC2)c(=O)c2c(-c3ccc(Cl)cc3)nn(C)c21`
Marked response: middle

Exam item: Pick a category. Item: `CCCCCn1cc(C(=O)NC2CCCCC2)c(=O)c2c(-c3ccccc3)nn(C)c21`
Marked response: middle

Exam item: Category of `CCCCCn1cc(C(=O)NC2CCCCC2)c(=O)c2c(C(C)(C)C)nn(C)c21` :
Marked response: middle

Exam item: Hey, which category is `CCCCCn1cc(C(=O)Nc2ccc(OC)cc2)c(=O)c2c(C)nn(C)c21` in, do you know?
Marked response: high

Exam item: Lab note: sort `Cc1ccc(Cn2cc(C(=O)NC3CCCCC3)c(=O)c3c(C)nn(C)c32)cc1` into the matching inhibition band.
Marked response: high

Exam item: Hello team, could you let me know which band the following compound falls into: `Cc1nn(C)c2c1c(=O)c(C(=O)NC1CCCCC1)cn2CCN1CCOCC1`
Marked response: low

Exam item: Could you place `CCOCCn1cc(C(=O)NC2CCCCC2)c(=O)c2c(C)nn(C)c21` in its proper category? Many thanks.
Marked response: low

Exam item: Quick check: band for `CCCCCn1cc(C(=O)Nc2ccc(F)cc2)c(=O)c2c(C)nn(C)c21`
Marked response: high
